Experiment: Acute toxicity test (oral LD50)
Conditions: mouse, in vivo; oral (5% solution), male ddY mice, seven days, Litchfield-Wilcoxon
Structures can show the parent of a compound that is named as a salt.
measurement_label: LD50 at 168 h

{"molecule": "CC1=C(C(=O)OCCCN2CCN(C(c3ccc(F)cc3)c3ccc(F)cc3)CC2)C(c2cccc(Cl)c2Cl)C(P2(=O)OCC(C)(C)CO2)=C(C)N1 (stereo not shown) [Dihydrochloride of Example 3]", "LD50 at 168 h": "> 400 mg/kg"}
{"molecule": "CC1=C(C(=O)OC(C)CN(Cc2ccccc2)c2ccccc2)C(c2cccc(Cl)c2Cl)C(P2(=O)O[C@H](C)C[C@@H](C)O2)=C(C)N1 (stereo partly shown) [Hydrochloride of Example 6]", "LD50 at 168 h": "> 300 mg/kg"}
{"molecule": "CC1=C(C(=O)OCCN(Cc2ccccc2)c2ccccc2)C(c2cccc([N+](=O)[O-])c2)C(P2(=O)O[C@H](C)C[C@@H](C)O2)=C(C)N1 (stereo partly shown) [Hydrochloride of Example 7]", "LD50 at 168 h": "> 600 mg/kg"}
{"molecule": "CC1=C(C(=O)OC(C)CN(Cc2ccccc2)c2ccccc2)C(c2cccc([N+](=O)[O-])c2)C(P2(=O)OC(C)(C)CC(C)(C)O2)=C(C)N1 (stereo not shown) [Hydrochloride of Example 4]", "LD50 at 168 h": "> 300 mg/kg"}

Name the recorded LD50 at 168 h for CC1=C(C(=O)OCCN2CCN(C(c3ccccc3)c3ccccc3)CC2)C(c2cccc(Cl)c2Cl)C(P2(=O)OCC(C)(C)CO2)=C(C)N1 (stereo not shown) [Dihydrochloride of Example 2] .
> 400 mg/kg

What measured LD50 at 168 h goes with CC1=C(C(=O)OCCN(Cc2ccccc2)c2ccccc2)C(c2cccc([N+](=O)[O-])c2)C(P2(=O)OCC(C)(C)CO2)=C(C)N1 (stereo not shown) [Hydrochloride of Example 1] ?
> 600 mg/kg

Which LD50 at 168 h is reported for this molecule? CC1=C(C(=O)OCCN(Cc2ccccc2)c2ccccc2)C(c2cccc([N+](=O)[O-])c2)C(P2(=O)OC(C)(C)CC(C)(C)O2)=C(C)N1 (stereo not shown) [Hydrochloride of Example 5]
> 300 mg/kg
